Entry source: patent US6608086B2

- ASSAY TARGET: α2C receptor (Homo sapiens, UniProt P18825)
- Construct: host or cells: LM(tk-) cells, line L-α2C
- Sequence (P18825 whole entry): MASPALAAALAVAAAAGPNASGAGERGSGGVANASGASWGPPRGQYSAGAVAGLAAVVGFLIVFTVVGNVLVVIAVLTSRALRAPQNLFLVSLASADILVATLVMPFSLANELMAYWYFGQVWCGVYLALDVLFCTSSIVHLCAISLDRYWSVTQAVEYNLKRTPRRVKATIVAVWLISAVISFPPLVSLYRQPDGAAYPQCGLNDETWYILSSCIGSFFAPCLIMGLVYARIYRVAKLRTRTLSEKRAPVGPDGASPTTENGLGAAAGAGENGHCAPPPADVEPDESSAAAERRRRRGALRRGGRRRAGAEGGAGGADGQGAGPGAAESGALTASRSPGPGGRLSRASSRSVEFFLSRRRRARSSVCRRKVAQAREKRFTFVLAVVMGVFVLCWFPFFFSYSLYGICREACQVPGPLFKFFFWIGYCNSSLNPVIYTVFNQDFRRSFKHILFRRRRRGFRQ
- MEASUREMENT NOTES: Competition binding, [3H]rauwolscine, human α2C receptor
- ASSAY CONTEXT: [3H]rauwolscine, human α2C receptor, LM(tk−) cells
READOUT LABEL: pKi alpha-2 2c

- COMPOUND: "CCC1=C(C(N)=O)C(c2ccc([N+](=O)[O-])cc2)C(C(=O)NCCCN2CCC(O)(c3ccccc3)CC2)=CN1CC.Cl.O (centres unmarked)"
  RESULT NUMBER: 6.04
- COMPOUND: "CCC1=C(C(N)=O)C(c2ccc([N+](=O)[O-])cc2)C(C(=O)NCCCN2CCC(c3ccccc3)(c3ccccc3)CC2)=C(CC)N1 (centres unmarked)"
  RESULT NUMBER: 6.72
- COMPOUND: "CCC1=C(C(N)=O)C(c2ccc([N+](=O)[O-])cc2)C(C(=O)NC2CCN(CCc3c[nH]c4ccccc34)CC2)=CN1CC (centres unmarked) [Example 123]"
  RESULT NUMBER: 6.42
- COMPOUND: "CCC1=C(C(=O)NC)C(c2ccc([N+](=O)[O-])cc2)C(C(=O)NCCCN2CCC(C#N)(c3ccccc3)CC2)=C(CC)N1 (centres unmarked)"
  RESULT NUMBER: 5.36
- COMPOUND: "CC(C)C1=C(C(N)=O)C(c2ccc([N+](=O)[O-])cc2)C(C(=O)NCCCN2CCC(c3ccccc3)(c3ccccc3)CC2)=C(C(C)C)N1 (centres unmarked)"
  RESULT NUMBER: 6.37
- COMPOUND: "COC(=O)C1=C(C)NC2=C(C(=O)N(CCCN3CCC(c4ccccc4)(c4ccccc4)CC3)C2)C1c1ccc([N+](=O)[O-])cc1.Cl.O (centres unmarked)"
  RESULT NUMBER: 6.31
- COMPOUND: "CCC1=C(C(N)=O)C(c2ccc([N+](=O)[O-])cc2)C(C(=O)NC2CCN(CCc3c[nH]c4ccccc34)CC2)=CN1CC (centres unmarked) [Example 122]"
  RESULT NUMBER: 6.53
- COMPOUND: "CCOC(=O)C1=C(CNCCCN2CCC(c3ccccc3)(c3ccccc3)CC2)NC(C)=C(C(=O)OC)C1c1ccc([N+](=O)[O-])cc1.Cl.O (centres unmarked)"
  RESULT NUMBER: 6.79

###

- ASSAY TARGET: α1B Human Adrenergic Receptor (Homo sapiens, UniProt P35368)
- Construct: The entire coding region of α1B (1563 bp); expressed in transfected cells
- Sequence (P35368 whole entry): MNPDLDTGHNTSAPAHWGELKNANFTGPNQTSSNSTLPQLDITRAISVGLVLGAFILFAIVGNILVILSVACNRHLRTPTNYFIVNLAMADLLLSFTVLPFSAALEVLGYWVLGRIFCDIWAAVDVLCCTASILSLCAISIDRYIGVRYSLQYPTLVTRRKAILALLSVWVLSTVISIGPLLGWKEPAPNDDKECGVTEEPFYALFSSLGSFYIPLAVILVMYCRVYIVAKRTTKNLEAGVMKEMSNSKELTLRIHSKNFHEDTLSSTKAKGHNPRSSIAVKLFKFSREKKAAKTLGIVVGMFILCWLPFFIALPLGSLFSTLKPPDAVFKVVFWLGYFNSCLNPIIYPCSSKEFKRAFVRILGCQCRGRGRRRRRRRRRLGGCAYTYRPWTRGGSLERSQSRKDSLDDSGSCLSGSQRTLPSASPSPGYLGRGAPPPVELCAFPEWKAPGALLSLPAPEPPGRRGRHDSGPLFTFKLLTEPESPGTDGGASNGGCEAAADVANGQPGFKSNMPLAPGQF
- MEASUREMENT NOTES: Radioligand binding, [3H]prazosin, cloned human α1B adrenergic receptor
- ASSAY CONTEXT: cloned human receptor, LM(tk-) cell membranes, mean, read-out: PKi alpha-1 1b (converted)
Below, each entry is listed alongside its reported Ki.

- MOLECULE: "CC(=O)C1=C(C)NC(COCCCN)=C(C(=O)NCCCN2CCC(c3ccccc3)(c3ccccc3)CC2)C1c1ccc([N+](=O)[O-])cc1 (stereo not drawn)"
  Ki [nM]: 204
- MOLECULE: "CCC1=C(C(=O)NC)C(c2ccc([N+](=O)[O-])cc2)C(C(=O)NCCCN2CCC(c3ccccc3)(c3ccccc3)CC2)=C(COCCN)N1 (stereo not drawn)"
  Ki [nM]: 501
- MOLECULE: "CCC1=C(C(=O)OCCC#N)C(c2ccc([N+](=O)[O-])cc2)C(C(=O)NCCCN2CCC(c3ccccc3)CC2)=C(COC)N1 (stereo not drawn)"
  Ki [nM]: 52.5

###

- ASSAY TARGET: α1B Human Adrenergic Receptor (Homo sapiens, UniProt P35368)
- Construct: The entire coding region of α1B (1563 bp); expressed in transfected cells
- MEASUREMENT NOTES: Radioligand binding, [3H]prazosin, cloned human α1B adrenergic receptor
- ASSAY CONTEXT: cloned human receptor in LM(tk-) cell membranes, SEM and n in lines below, read-out: pKi alpha-1 1b (converted)
Counter-ions that a name gives are not always drawn.
Output Y for records whose Ki is lower than 80 nM, N for records at or above 80 nM.

- MOLECULE: "COC(=O)C1=C(C)NC(C)=C(C(=O)NCCCN2CCC(c3ccccc3)CC2)C1c1ccc(C)cc1 (stereo not shown) [Example 31]"
  CATEGORY LABEL: "Y"
- MOLECULE: "COC(=O)C1=C(C)NC(c2ccccc2)=C(C(=O)NCCCN2CCC(c3ccccc3)(c3ccccc3)CC2)C1c1ccc([N+](=O)[O-])cc1 (stereo not shown) [Example 78, hydrochloride hydrate]"
  CATEGORY LABEL: "N"
- MOLECULE: "COC(=O)C1=C(C)NC(C)=C(C(=O)NCCCN2CCC(c3ccccc3)(c3ccccc3)CC2)C1c1ccc(Cl)c(Cl)c1 (stereo not shown) [Example 24]"
  CATEGORY LABEL: "N"
- MOLECULE: "COC(=O)C1=C(C)NC(C)=C(C(=O)NCCCN2CCC(c3ccccc3)CC2)C1c1ccc([N+](=O)[O-])cc1 (racemic) [(±)-45, hydrochloride hemihydrate]"
  CATEGORY LABEL: "Y"
- MOLECULE: "COC(=O)C1=C(C)NC(C)=C(C(=O)NCCCN2CCC(c3ccccc3)(c3ccccc3)CC2)C1C1CCCCC1 (stereo not shown) [Example 6]"
  CATEGORY LABEL: "N"
- MOLECULE: "COC(=O)C1=C(C)NC(C)=C(C(=O)NCCCN2CCC(c3ccccc3)CC2)C1c1ccc(Cl)c([N+](=O)[O-])c1 (stereo not shown) [Example 17]"
  CATEGORY LABEL: "Y"
- MOLECULE: "COC(=O)C1=C(C)NC(C)=C(C(=O)NCCCCN2CCC(c3ccccc3)CC2)C1c1ccc([N+](=O)[O-])cc1 (stereo not shown) [Example 3, hydrochloride hydrate]"
  CATEGORY LABEL: "Y"
- MOLECULE: "COC(=O)C1=C(C)NC(C)=C(C(=O)NCCCN2CCC(c3ccccc3)(c3ccccc3)CC2)C1c1cc(OC)c(OC)c(OC)c1 (stereo not shown) [Example 27]"
  CATEGORY LABEL: "N"
- MOLECULE: "COC(=O)C1=C(C)NC(C)=C(C(=O)NCCCN2CCC(c3ccccc3)(c3ccccc3)CC2)C1c1ccc(OC)c(OC)c1 (stereo not shown) [Example 26]"
  CATEGORY LABEL: "N"
- MOLECULE: "CC1=C(C(N)=O)C(c2ccc([N+](=O)[O-])cc2)C(C(=O)NCCCN2CCC(c3ccccc3)CC2)=C(C)N1 (stereo not shown) [Example 60]"
  CATEGORY LABEL: "Y"
- MOLECULE: "COC(=O)C1=C(C)NC(C)=C(C(=O)NCCCN2CCCCC2)C1c1ccc([N+](=O)[O-])cc1 (stereo not shown) [Example 51]"
  CATEGORY LABEL: "N"
- MOLECULE: "COC(=O)C1=C(C)NC(C)=C(C(=O)NCCCN2CCC(c3ccccc3)(c3ccccc3)CC2)C1c1ccncc1 (stereo not shown) [Example 5]"
  CATEGORY LABEL: "N"
- MOLECULE: "COC(=O)C1=C(C)NC(C)=C(C(=O)NCCCN2CCC(c3ccccc3)(c3ccccc3)CC2)C1c1ccc(C(=O)OC)cc1 (stereo not shown) [Example 25]"
  CATEGORY LABEL: "N"

###

Below, each entry is listed alongside its reported Ki.
- ASSAY TARGET: L-type calcium channel (Rattus norvegicus)
- Construct: membrane fragments of rat cardiac muscle; from tissue; host or cells: rat cardiac muscle membranes
- Sequence (P22002 whole entry, other chains not shown, the tested form may be a part): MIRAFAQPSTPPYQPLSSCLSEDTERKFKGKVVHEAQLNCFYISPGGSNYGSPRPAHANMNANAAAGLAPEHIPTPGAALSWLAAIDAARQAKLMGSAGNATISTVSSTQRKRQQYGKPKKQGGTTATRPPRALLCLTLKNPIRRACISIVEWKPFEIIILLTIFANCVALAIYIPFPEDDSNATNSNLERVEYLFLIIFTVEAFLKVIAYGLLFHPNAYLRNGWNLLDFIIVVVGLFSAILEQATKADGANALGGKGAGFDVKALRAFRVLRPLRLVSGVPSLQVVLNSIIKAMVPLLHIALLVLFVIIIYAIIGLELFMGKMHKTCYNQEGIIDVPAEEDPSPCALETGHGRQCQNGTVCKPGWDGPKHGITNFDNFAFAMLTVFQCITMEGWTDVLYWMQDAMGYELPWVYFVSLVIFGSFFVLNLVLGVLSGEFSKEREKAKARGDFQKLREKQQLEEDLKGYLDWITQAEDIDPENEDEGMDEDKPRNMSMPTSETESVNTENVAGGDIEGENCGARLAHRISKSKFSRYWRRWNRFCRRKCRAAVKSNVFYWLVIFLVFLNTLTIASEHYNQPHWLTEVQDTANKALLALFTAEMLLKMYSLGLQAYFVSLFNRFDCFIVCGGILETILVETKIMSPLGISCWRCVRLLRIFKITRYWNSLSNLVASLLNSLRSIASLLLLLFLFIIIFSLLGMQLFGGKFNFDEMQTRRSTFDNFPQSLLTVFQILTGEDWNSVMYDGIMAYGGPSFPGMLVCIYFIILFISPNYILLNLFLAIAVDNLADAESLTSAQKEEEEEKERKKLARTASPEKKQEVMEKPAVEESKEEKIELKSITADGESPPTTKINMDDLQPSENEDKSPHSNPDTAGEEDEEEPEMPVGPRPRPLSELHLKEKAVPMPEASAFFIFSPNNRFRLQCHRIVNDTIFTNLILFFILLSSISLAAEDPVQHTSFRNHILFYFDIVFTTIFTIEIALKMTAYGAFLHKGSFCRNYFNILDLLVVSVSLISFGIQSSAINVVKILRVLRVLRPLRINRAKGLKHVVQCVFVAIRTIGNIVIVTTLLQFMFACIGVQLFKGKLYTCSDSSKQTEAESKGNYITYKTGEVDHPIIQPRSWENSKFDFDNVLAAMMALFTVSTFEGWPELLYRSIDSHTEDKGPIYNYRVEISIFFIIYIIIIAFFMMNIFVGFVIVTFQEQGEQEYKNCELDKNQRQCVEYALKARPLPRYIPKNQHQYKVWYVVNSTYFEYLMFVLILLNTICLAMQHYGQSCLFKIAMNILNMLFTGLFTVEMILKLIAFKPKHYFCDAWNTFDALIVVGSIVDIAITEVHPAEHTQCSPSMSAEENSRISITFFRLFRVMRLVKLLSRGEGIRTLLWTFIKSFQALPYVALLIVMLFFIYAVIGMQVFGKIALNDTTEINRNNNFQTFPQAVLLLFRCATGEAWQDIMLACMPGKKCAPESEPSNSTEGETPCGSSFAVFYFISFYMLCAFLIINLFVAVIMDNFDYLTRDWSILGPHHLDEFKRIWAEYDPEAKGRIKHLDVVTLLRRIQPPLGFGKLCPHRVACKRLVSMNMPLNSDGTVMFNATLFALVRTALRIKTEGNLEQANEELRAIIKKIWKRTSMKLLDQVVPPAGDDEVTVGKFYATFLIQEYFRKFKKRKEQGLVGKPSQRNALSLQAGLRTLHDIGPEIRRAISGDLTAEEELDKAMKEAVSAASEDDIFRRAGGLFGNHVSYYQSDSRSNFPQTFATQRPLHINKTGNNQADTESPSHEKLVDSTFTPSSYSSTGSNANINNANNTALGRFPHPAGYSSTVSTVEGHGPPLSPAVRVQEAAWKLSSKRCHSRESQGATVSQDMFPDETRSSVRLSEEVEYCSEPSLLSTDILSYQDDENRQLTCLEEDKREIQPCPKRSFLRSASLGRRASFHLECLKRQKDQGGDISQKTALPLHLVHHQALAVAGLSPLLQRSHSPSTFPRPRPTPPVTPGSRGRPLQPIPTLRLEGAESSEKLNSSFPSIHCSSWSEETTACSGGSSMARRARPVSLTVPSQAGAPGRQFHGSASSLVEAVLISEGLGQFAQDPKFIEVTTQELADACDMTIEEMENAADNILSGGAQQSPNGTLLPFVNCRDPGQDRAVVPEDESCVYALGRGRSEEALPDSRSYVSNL
- Sequence (P54290 25-944 partner limits assumed, other chains not shown): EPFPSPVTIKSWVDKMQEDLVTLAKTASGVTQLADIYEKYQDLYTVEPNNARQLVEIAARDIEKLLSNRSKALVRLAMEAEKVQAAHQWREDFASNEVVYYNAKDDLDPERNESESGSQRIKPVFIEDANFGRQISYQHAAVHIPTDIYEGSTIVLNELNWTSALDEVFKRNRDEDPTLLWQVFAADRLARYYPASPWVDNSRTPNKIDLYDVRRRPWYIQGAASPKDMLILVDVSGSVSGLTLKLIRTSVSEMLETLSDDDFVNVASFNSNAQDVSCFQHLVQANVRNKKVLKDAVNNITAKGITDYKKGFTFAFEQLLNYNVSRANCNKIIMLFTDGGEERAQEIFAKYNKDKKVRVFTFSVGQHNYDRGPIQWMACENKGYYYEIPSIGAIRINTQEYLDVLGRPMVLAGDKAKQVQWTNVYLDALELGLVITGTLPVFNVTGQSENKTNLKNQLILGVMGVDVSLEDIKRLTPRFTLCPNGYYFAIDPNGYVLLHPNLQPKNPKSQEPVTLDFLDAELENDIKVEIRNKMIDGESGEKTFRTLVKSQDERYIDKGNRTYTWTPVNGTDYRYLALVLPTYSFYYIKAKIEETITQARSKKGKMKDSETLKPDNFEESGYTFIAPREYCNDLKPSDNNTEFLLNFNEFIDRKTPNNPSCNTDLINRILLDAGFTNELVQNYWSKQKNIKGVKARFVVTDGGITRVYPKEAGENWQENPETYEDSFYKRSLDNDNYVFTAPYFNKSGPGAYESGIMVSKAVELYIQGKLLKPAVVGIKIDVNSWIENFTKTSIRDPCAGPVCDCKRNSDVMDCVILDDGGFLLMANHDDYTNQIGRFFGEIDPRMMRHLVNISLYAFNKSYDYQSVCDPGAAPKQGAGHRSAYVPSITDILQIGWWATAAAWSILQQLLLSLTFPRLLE
- Sequence (P54290 945-1091 partner limits assumed, other chains not shown): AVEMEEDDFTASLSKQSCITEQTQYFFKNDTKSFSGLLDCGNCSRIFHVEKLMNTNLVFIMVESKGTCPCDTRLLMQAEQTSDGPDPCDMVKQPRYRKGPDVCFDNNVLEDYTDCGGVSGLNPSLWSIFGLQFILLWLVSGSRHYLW
- MEASUREMENT NOTES: Competition binding of [3H]nitrendipine to membrane fragments of rat cardiac muscle
- ASSAY CONTEXT: [3H]nitrendipine, rat cardiac muscle membrane fragments, L-type calcium channel; read-out: pKi Ca (converted)
Where a name gives a salt, the structure may show the parent alone.
READOUT LABEL: Ki

- MOLECULE: "CC(C)C1=C(C(N)=O)C(c2ccc([N+](=O)[O-])cc2)C(C(=O)NCCCN2CCC(c3ccccc3)(c3ccccc3)CC2)=C(C(C)C)N1 (stereo not drawn) [Example 127]"
  ASSAY TARGET: "L-type calcium channel (Rattus norvegicus)"
  RESULT: "1000 µM"
- MOLECULE: "CCC1=C(C(N)=O)C(c2ccc([N+](=O)[O-])cc2)C(C(=O)NCCCN2CCN(c3ccccc3)CC2)=C(CC)N1 (stereo not drawn) [Example 104, hydrochloride hydrate]"
  ASSAY TARGET: "L-type calcium channel (Rattus norvegicus)"
  RESULT: "1000 µM"
- MOLECULE: "CCC1=C(C(N)=O)C(c2ccc([N+](=O)[O-])cc2)C(C(=O)NCCCN2CCC(C#N)(c3ccccc3)CC2)=C(CC)N1 (single isomer, unassigned; (-)) [(−)-102]"
  ASSAY TARGET: "L-type calcium channel (Rattus norvegicus)"
  RESULT: "0.55 µM"
